This listing pairs molecules with measured pIC50.
test system: peripheral blood mononuclear cells (PBMC) with allogeneic PBMC or RPMI1788 stimulator cells; assay: Mixed lymphocyte reaction (MLR) test, [3H]-thymidine incorporation; type: cell-based, human; details: Table 1; 5 days incubation + 16 h thymidine
// pIC50: -log10(molar conc.)

// known answers, use as guide
{"Molecule": "Cn1c(=O)c2nc(C=O)c(N3CCCCCC3)nc2n(C)c1=O", "Experimental value": 4.10}
{"Molecule": "CCOC(=O)CSc1nc2c(nc1C(Cl)Cl)c(=O)n(C)c(=O)n2C", "Experimental value": 3.94}
{"Molecule": "CC(C)Sc1nc2c(nc1C#N)c(=O)n(C)c(=O)n2C", "Experimental value": 3.94}
{"Molecule": "Cc1nc2c(=O)n(C)c(=O)n(C)c2nc1C=Cc1ccccc1", "Experimental value": 3.92}
{"Molecule": "CC(C)Nc1nc2c(nc1C=O)c(=O)n(C)c(=O)n2C", "Experimental value": 4.04}

// query What value of measured pIC50 is listed for Cn1c(=O)c2nc(C(O)C[N+](=O)[O-])cnc2n(C)c1=O (stereo not drawn) ?
// result 4.05
